# Tested on: differentiated adipocytes
# protocol.description: Hallmark genes and triglycerides in differentiated adipocytes
# Format: cell-based, human
# test.conditions: Table 28; differentiated adipocytes transfected day nine post-differentiation; 250 nM oligonucleotide
In the oligonucleotide strings, read from the 5' end, every base follows the letter of its sugar. An asterisk marks phosphorothioate; unmarked linkages are phosphodiester. Other units and linkages are bracketed, terminal groups are in braces. A string of capitals states the bases alone. e = 2'-O-(2-methoxyethyl) (MOE); [5mC] = 5-methylcytosine
Here, each record is paired with measured TG data.

INSERT INTO results (substance, value_kind, readout_value) VALUES
  ('327892 (antisense eA*e[5mC]*eT*eT*eT*e[5mC]*eG*eG*eT*eT*eA*eT*e[5mC]*eT*eA*eG*e[5mC]*eT*eT*eT*eA) [compound 327892]', 'TG', 1.23);

Fill in reported TG for this entry: 327876 (antisense eA*eA*e[5mC]*eA*e[5mC]*eT*eG*eA*eT*eT*eT*e[5mC]*eA*eA*eA*eT*eG*eG*eT*eG*e[5mC]*eT*eA) [compound 327876]
1.16

Fill in reported TG for this entry: 327878 (antisense e[5mC]*eT*eA*eG*eT*eG*eG*eT*e[5mC]*e[5mC]*eT*eA*eA*eA*e[5mC]*eA*eT*eT*eT*e[5mC]*eA*e[5mC]) [compound 327878]
1.08

Fill in reported TG for this entry: 327919 (antisense eG*eA*eA*eA*e[5mC]*e[5mC]*e[5mC]*eA*eG*e[5mC]*eA*eG*eA*e[5mC]*eA*eA*eT*eG*eT*eA*eG*e[5mC]*eT) [compound 327919]
1.15

Fill in reported TG for this entry: 327880 (antisense eA*e[5mC]*eA*eA*eA*eT*eT*e[5mC]*eG*eG*eT*eT*e[5mC]*eT*eA*e[5mC]*eA*eG*eG*eG*eT*eA) [compound 327880]
1.12

* * *

# Tested on: HeLa cells
# protocol.description: Cell cycle assay in HeLa cells
# Type: cell-based, human
# test.conditions: HeLa cells, 150 nM, 48 hours; percentage of cells in phase, average of replicates
In the oligonucleotide strings, read from the 5' end, every base follows the letter of its sugar. An asterisk marks phosphorothioate; unmarked linkages are phosphodiester. Other units and linkages are bracketed, terminal groups are in braces. A string of capitals states the bases alone. e = 2'-O-(2-methoxyethyl) (MOE); [5mC] = 5-methylcytosine; d = 2'-deoxy (DNA)
value.kind: % cells in cell cycle phase: subG1 (%)
A number alone suffices; assume %.

Example results:
INSERT INTO assay_data (substance, tgt, readout_value) VALUES
  ('327902 (antisense eG*eG*e[5mC]*eT*eG*eT*e[5mC]*eA*eA*eT*eT*e[5mC]*eA*eT*eA*eG*eG*eT*e[5mC]*eA*eG) [compound 327902]', 'HeLa cells', 6.3),
  ('327905 (antisense e[5mC]*eA*eG*eA*e[5mC]*eT*e[5mC]*e[5mC]*eG*eG*eT*eG*eG*eA*eA*eT*eG*eA*eA*eG*eG*eA) [compound 327905]', 'HeLa cells', 4.5),
  ('328403 (antisense eA*eG*eG*e[5mC]*e[5mC]*dT*dA*dT*dT*d[5mC]*d[5mC]*dT*dG*dT*dA*eG*e[5mC]*eA*eA*eA) [compound 328403]', 'HeLa cells', 8.2);

Fill in reported % cells in cell cycle phase: subG1 for this entry: 328383 (eA*eG*eA*eG*eG*dG*dG*dA*dG*dA*d[5mC]*dG*dA*dG*dA*eG*e[5mC]*eA*e[5mC]*eT) [compound 328383]
11.8
